Let's look at some compounds and their measured IC50.
# Target of assay: KRas G12R (Homo sapiens, UniProt P01116, G12R)
# Construct: KRas G12R (1-169) loaded with GDP nucleotide; biotin (biotinylated)
# Sequence (P01116 1-169 G12R): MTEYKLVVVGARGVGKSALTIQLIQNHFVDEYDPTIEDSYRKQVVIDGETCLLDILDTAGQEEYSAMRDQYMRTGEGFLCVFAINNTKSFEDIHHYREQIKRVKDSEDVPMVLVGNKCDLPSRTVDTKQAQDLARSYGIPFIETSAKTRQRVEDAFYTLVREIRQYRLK
# Assay details: SOS1-Catalyzed Nucleotide Exchange Assay, KRas G12R
# Condition set: 10 nM KRas G12R (1-169, GDP-loaded), 200 nM SOS1

Compound: Oc1cc2c3c(c(F)ccc3c1)-c1cn(nn1)CCCCC1CCCN(C1)c1nc(OC[C@@]34CCCN3C[C@H](F)C4)nc3c(F)c-2ncc13 (stereo partly drawn) [Compound 125a]
Target of assay: KRas G12R (Homo sapiens, UniProt P01116, G12R)
IC50: 10 to 30 µM

Compound: O=C1CCc2c(Cl)cc(O)cc2-c2ncc3c(nc(OC[C@@]45CCCN4C[C@H](F)C5)nc3c2F)N2CCCC(CCN1)C2 (stereo partly drawn) [Compound 113a]
Target of assay: KRas G12R (Homo sapiens, UniProt P01116, G12R)
IC50: 10 to 30 µM

q: So what does the record say about IC50 for O=C1CCCCc2c(Cl)cc(O)cc2-c2ncc3c(nc(OC[C@@]45CCCN4C[C@H](F)C5)nc3c2F)N2CCC[C@@H](CCN1)C2 (single isomer, unassigned) [Compound 115c] ?
a: ≤ 0.1 µM

q: Name the reported IC50 value associated with the compound O=C1CCCCc2c(Cl)cc(O)cc2-c2ncc3c(nc(OC[C@@]45CCCN4C[C@H](F)C5)nc3c2F)N2CCC[C@H](CCN1)C2 (single isomer, unassigned) [Compound 115b]
a: ≤ 0.1 µM

q: Which IC50 is reported for this compound? O=C1CCCCc2c(Cl)cc(O)cc2-c2ncc3c(nc(OC[C@@]45CCCN4C[C@H](F)C5)nc3c2F)N2CCCC(CCN1)C2 (stereo partly drawn) [Compound 115a]
a: ≤ 0.1 µM

q: Name the recorded IC50 for Oc1cc(Cl)c2c(c1)-c1ncc3c(nc(OC[C@@]45CCCN4C[C@H](F)C5)nc3c1F)N1CCCC(O)(CCCCCC2)C1 (stereo partly drawn) [Compound 151a] .
a: ≤ 0.1 µM
